Attribution: the supplement of paper PMC10724198

# protein stability index annotations
# Tested on: Saccharomyces cerevisiae
# assayName: protein stability index of tFT-peptide fusion (C-terminal peptide) (PSI (0-1 scale)); higher = more stable (slower turnover);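 further: PSI is a weighted mean of sequencing reads over stability bins, variants kept only with over 10 reads, mCherry proximal and sfGFP distal, peptide attached via GGGS linker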
# conditionSet: genetic background: doa10 deletion; temperature: 30 C

- sequenceChain: "VSLLSLGYVFVY"
  protein stability index: 0.184
- sequenceChain: "ILGQSVIMRIKM"
  protein stability index: 0.606
- sequenceChain: "HHACLLPVRKAG"
  protein stability index: 0.154
- sequenceChain: "FTLFFVASVLDL"
  protein stability index: 0.358
- sequenceChain: "SIFLCRLQNLLI"
  protein stability index: 0.19
- sequenceChain: "LDLPFESGIACF"
  protein stability index: 0.209

###

# protein stability index annotations
# Tested on: Saccharomyces cerevisiae
# assayName: protein stability index of tFT-peptide fusion (C-terminal peptide) (PSI (0-1 scale)); higher = more stable (slower turnover)
# conditionSet: genetic background: wild type; temperature: 30 C
measuredParameter: protein stability index

- sequenceChain: "RARGQPTKDIAS"
  measuredParameter: "protein stability index"
  endpointValue: 0.643
- sequenceChain: "DQEENKRTNGTR"
  measuredParameter: "protein stability index"
  endpointValue: 0.71
- sequenceChain: "PYTPRSTSPPPL"
  measuredParameter: "protein stability index"
  endpointValue: 0.77
- sequenceChain: "KEGRKKKRQINT"
  measuredParameter: "protein stability index"
  endpointValue: 0.803
- sequenceChain: "VAPLTPPPSLPF"
  measuredParameter: "protein stability index"
  endpointValue: 0.671
- sequenceChain: "WWGRWPGLAGGR"
  measuredParameter: "protein stability index"
  endpointValue: 0.716
- sequenceChain: "PRPLPAPPQRNL"
  measuredParameter: "protein stability index"
  endpointValue: 0.628
- sequenceChain: "SNQKGQIYYEPS"
  measuredParameter: "protein stability index"
  endpointValue: 0.706
- sequenceChain: "EVSGGNRYWCGV"
  measuredParameter: "protein stability index"
  endpointValue: 0.719
- sequenceChain: "LLSCVRSHPDAP"
  measuredParameter: "protein stability index"
  endpointValue: 0.702
- sequenceChain: "SGGGVGGQVAVG"
  measuredParameter: "protein stability index"
  endpointValue: 0.715
- sequenceChain: "SGLWAGVDGRSS"
  measuredParameter: "protein stability index"
  endpointValue: 0.686
- sequenceChain: "ASPYTVTPLTNS"
  measuredParameter: "protein stability index"
  endpointValue: 0.693
- sequenceChain: "LSRLIFKVSVLM"
  measuredParameter: "protein stability index"
  endpointValue: 0.445
- sequenceChain: "PPHPLPPPSPPF"
  measuredParameter: "protein stability index"
  endpointValue: 0.682
- sequenceChain: "SLPRWLPPPLQS"
  measuredParameter: "protein stability index"
  endpointValue: 0.687
- sequenceChain: "KVAECGYGTSWV"
  measuredParameter: "protein stability index"
  endpointValue: 0.724
- sequenceChain: "TPPRVYPLLRTS"
  measuredParameter: "protein stability index"
  endpointValue: 0.682
- sequenceChain: "SYRPPYTQPTDL"
  measuredParameter: "protein stability index"
  endpointValue: 0.658
- sequenceChain: "PLHPPCLPPSRL"
  measuredParameter: "protein stability index"
  endpointValue: 0.814
- sequenceChain: "NDNNSRSGRRIF"
  measuredParameter: "protein stability index"
  endpointValue: 0.66
- sequenceChain: "LRSPHPLPPPPP"
  measuredParameter: "protein stability index"
  endpointValue: 0.732
- sequenceChain: "KHIIPSAYTPEG"
  measuredParameter: "protein stability index"
  endpointValue: 0.661
- sequenceChain: "VQDFTFLLPLAP"
  measuredParameter: "protein stability index"
  endpointValue: 0.692
- sequenceChain: "CVGFVVVGGVLG"
  measuredParameter: "protein stability index"
  endpointValue: 0.667
- sequenceChain: "KRRSQKKKRIMD"
  measuredParameter: "protein stability index"
  endpointValue: 0.697
- sequenceChain: "CHPFQAAVPIYL"
  measuredParameter: "protein stability index"
  endpointValue: 0.581
- sequenceChain: "LTVPCSSSFPLL"
  measuredParameter: "protein stability index"
  endpointValue: 0.647
- sequenceChain: "PGPLISAVPLPF"
  measuredParameter: "protein stability index"
  endpointValue: 0.733
- sequenceChain: "CYLKGSGSWISG"
  measuredParameter: "protein stability index"
  endpointValue: 0.718
- sequenceChain: "PAHSTEVVPRVL"
  measuredParameter: "protein stability index"
  endpointValue: 0.717
- sequenceChain: "RGGGEWGKEDSQ"
  measuredParameter: "protein stability index"
  endpointValue: 0.705
- sequenceChain: "TKFKPKILEKCT"
  measuredParameter: "protein stability index"
  endpointValue: 0.686
- sequenceChain: "LVVCWGCGLGVL"
  measuredParameter: "protein stability index"
  endpointValue: 0.71
- sequenceChain: "IDSNLCFVKSYT"
  measuredParameter: "protein stability index"
  endpointValue: 0.618
- sequenceChain: "RKTEGGGEGLAV"
  measuredParameter: "protein stability index"
  endpointValue: 0.728
- sequenceChain: "PPPLPPPCSAPP"
  measuredParameter: "protein stability index"
  endpointValue: 0.736
- sequenceChain: "LSPLSVPAPPSP"
  measuredParameter: "protein stability index"
  endpointValue: 0.655
- sequenceChain: "SYPSGFPSPSHP"
  measuredParameter: "protein stability index"
  endpointValue: 0.834
- sequenceChain: "GLVGCLFFCCIG"
  measuredParameter: "protein stability index"
  endpointValue: 0.558
- sequenceChain: "PLPAPPPPTLPD"
  measuredParameter: "protein stability index"
  endpointValue: 0.715
- sequenceChain: "TTACLLERFTRV"
  measuredParameter: "protein stability index"
  endpointValue: 0.664
- sequenceChain: "SVGGSRSGRGGQ"
  measuredParameter: "protein stability index"
  endpointValue: 0.688
- sequenceChain: "GAEHGVRTTAVT"
  measuredParameter: "protein stability index"
  endpointValue: 0.658
- sequenceChain: "LPLGSTVVSGES"
  measuredParameter: "protein stability index"
  endpointValue: 0.632
- sequenceChain: "QRGGEGWILGGV"
  measuredParameter: "protein stability index"
  endpointValue: 0.687
- sequenceChain: "LSIPPSLLSLPL"
  measuredParameter: "protein stability index"
  endpointValue: 0.702
- sequenceChain: "GTLWPLPCRPDG"
  measuredParameter: "protein stability index"
  endpointValue: 0.561
- sequenceChain: "VSGVLPGALFPL"
  measuredParameter: "protein stability index"
  endpointValue: 0.684
- sequenceChain: "RFSPRSLIFFPS"
  measuredParameter: "protein stability index"
  endpointValue: 0.612
- sequenceChain: "ILQWEESRKGGI"
  measuredParameter: "protein stability index"
  endpointValue: 0.715
- sequenceChain: "NELRTFLGDRDI"
  measuredParameter: "protein stability index"
  endpointValue: 0.675
- sequenceChain: "APPPSPPPPPFP"
  measuredParameter: "protein stability index"
  endpointValue: 0.67
- sequenceChain: "KKKKKKKKQEQN"
  measuredParameter: "protein stability index"
  endpointValue: 0.631
- sequenceChain: "LFFVFCLFFIYF"
  measuredParameter: "protein stability index"
  endpointValue: 0.247
- sequenceChain: "KGENKRRVRKKN"
  measuredParameter: "protein stability index"
  endpointValue: 0.574
- sequenceChain: "GRVGRGGAVGEW"
  measuredParameter: "protein stability index"
  endpointValue: 0.671
- sequenceChain: "MGKSLCLFTQPI"
  measuredParameter: "protein stability index"
  endpointValue: 0.668
- sequenceChain: "PRRPAFPPPGLP"
  measuredParameter: "protein stability index"
  endpointValue: 0.705
- sequenceChain: "FGVRRSFVVFVV"
  measuredParameter: "protein stability index"
  endpointValue: 0.191
- sequenceChain: "LGGGGGLTAAGV"
  measuredParameter: "protein stability index"
  endpointValue: 0.743
- sequenceChain: "MVTWSDRVIKSW"
  measuredParameter: "protein stability index"
  endpointValue: 0.733
- sequenceChain: "DLIGSVRRLFCV"
  measuredParameter: "protein stability index"
  endpointValue: 0.27
- sequenceChain: "ASFPPVHPALSP"
  measuredParameter: "protein stability index"
  endpointValue: 0.664
- sequenceChain: "PTLLQPPPPSYP"
  measuredParameter: "protein stability index"
  endpointValue: 0.704
- sequenceChain: "SLSAPPPRSTSP"
  measuredParameter: "protein stability index"
  endpointValue: 0.597
- sequenceChain: "RPPPALWPPPSP"
  measuredParameter: "protein stability index"
  endpointValue: 0.694
- sequenceChain: "WLPRPHPPLRPA"
  measuredParameter: "protein stability index"
  endpointValue: 0.724
- sequenceChain: "EKVGVTVLLRHV"
  measuredParameter: "protein stability index"
  endpointValue: 0.679
- sequenceChain: "CSFHFSLFFLRV"
  measuredParameter: "protein stability index"
  endpointValue: 0.334
- sequenceChain: "DGAVRRGVGGLG"
  measuredParameter: "protein stability index"
  endpointValue: 0.699
- sequenceChain: "CPRPPPPTACPV"
  measuredParameter: "protein stability index"
  endpointValue: 0.641
- sequenceChain: "FAAGIMWQSGLK"
  measuredParameter: "protein stability index"
  endpointValue: 0.657
- sequenceChain: "CPAPCPPLPPHV"
  measuredParameter: "protein stability index"
  endpointValue: 0.72
- sequenceChain: "KSTLVRILVFHV"
  measuredParameter: "protein stability index"
  endpointValue: 0.384
- sequenceChain: "IFLGFGPLFGRL"
  measuredParameter: "protein stability index"
  endpointValue: 0.777
- sequenceChain: "SVLVWFLVFLVW"
  measuredParameter: "protein stability index"
  endpointValue: 0.315
- sequenceChain: "HFVAALVLLTLD"
  measuredParameter: "protein stability index"
  endpointValue: 0.72
- sequenceChain: "ARAAHLASRGLP"
  measuredParameter: "protein stability index"
  endpointValue: 0.689
- sequenceChain: "KKILNKEKSKMA"
  measuredParameter: "protein stability index"
  endpointValue: 0.718
